- System: MOLT-4 leukemia
- EXPERIMENT_DESCRIPTION: NCI-60 one-dose screen, 48 h (100 = growth as untreated, 0 = no growth, -100 = all killed)
- ASSAY_CONDITIONS: 10 µM unless noted
- Description: Growth inhibition of the MOLT-4 human tumor cell line is measured as a screen for anti-cancer activity. Cells are grown in 96 well plates and exposed to the test compound for 48 hours. Compounds are tested at a single concentration, which is 10^-5 M for most compounds. The reported endpoint is percent growth (GI% or GIPRCNT), where numbers from 0 - 100% represent growth inhibition, and numbers from -100% - 0 represent cell death. For example, a value of 40 represents 60% growth inhibition. […]
Compounds without any hit were thinned out: in the full panel of roughly 83,000, 20% have a hit.
OUTCOME_MEASURE: growth (%)

# SMILES_INPUT, UNIT_TAG, TEST_VALUE
rows = [
    ("O=c1oc2ccc(I)cc2c(=O)n1-c1ccc(Br)cc1F", "%", 3.69),
    ("CCOC(=O)c1sc(-c2ccc(OS(=O)(=O)c3cccs3)c(C=O)c2)nc1C", "%", -7.85),
    ("O=C(CCc1nnc2sc(-c3ccc(Cl)cc3Cl)nn12)c1nc2ncccc2[nH]1", "%", 5.44),
    ("O=C(Nc1ccccc1O)c1ccc(Oc2cccc(C(=O)Nc3ccccc3O)c2)cc1", "%", -28.5),
    ("COc1ccc(/C=C2\\SC(=Nc3ccccc3)NC2=O)cc1", "%", -59),
    ("CNCCNc1nc2ccccc2c2c(=O)c3cccc(OC)c3sc12", "%", 0.177),
]

---

- System: K-562 leukemia
- EXPERIMENT_DESCRIPTION: NCI-60 one-dose screen, 48 h (100 = growth as untreated, 0 = no growth, -100 = all killed)
- ASSAY_CONDITIONS: 10 µM unless noted
Compounds without any hit were thinned out: in the full panel of roughly 83,000, 20% have a hit.
Listing of entries alongside the reported growth.

# SMILES_INPUT, growth (%)
data = [
    ("Cc1ccc2sc3c(NCCCNCCO)nc4ccccc4c3c(=O)c2c1", -48.5),
    ("CCCc1c(C)c2sc(=O)[nH]c2[nH]c1=O", 107),
    ("O=c1oc2ccc(-c3ccc(F)cc3F)cc2c(=O)n1-c1cccc(C(F)(F)F)c1", 10.9),
]

---

- Tested on: SW-620 colon
- EXPERIMENT_DESCRIPTION: NCI-60 one-dose screen, 48 h (100 = growth as untreated, 0 = no growth, -100 = all killed)
- ASSAY_CONDITIONS: 10 µM unless noted
This is part of a sample that, as a whole, favours compounds with a hit. Of some 83,000 tested, about 20% had one in any assay.

# MOLECULE, growth (%)
data = [
    ("COc1ccc(Cn2c(Br)c3c(c2-c2cc(OC)c(OC)c(OC)c2)CCc2sc(NC(=O)c4ccc(OC)cc4)nc2-3)cc1", 96.2),
    ("COc1ccc(Br)c(/C=C2\\SC(=Nc3ccc(O)cc3)NC2=O)c1", 104),
    ("COc1ccc(-n2c(C(O)c3ccccc3)n[nH]c2=S)cc1 (stereo not given)", 105),
    ("Nc1cccc(Nc2cc(S(=O)(=O)O)c(N)c3c2C(=O)c2ccccc2C3=O)c1", 104),
    ("Cc1ccc2sc3c(NCCCNCCO)nc4ccccc4c3c(=O)c2c1", -78.2),
    ("O=C(CCc1nnc2sc(Cc3ccccc3Cl)nn12)c1nc2ncccc2[nH]1", 88.4),
    ("CNC(=O)c1cc(Oc2ccc(CC(=O)Nc3cc(C(C)(C)C)cn3C)cc2)ccn1", 105),
    ("COc1cc(C(C)n2cc(-c3ccccc3)nn2)ccc1OC1CCCCC1 (stereo not given)", 75.5),
    ("O=c1cc(NC2CCN(CCCc3ccccc3)CC2)c2cc(Cl)ccc2o1", 6.98),
    ("COc1ccc(-c2nsc3c2NC(=O)CC3c2ccsc2)cc1 (stereo not given)", 28.3),
]

Reference for the values: PubChem BioAssay (NCI)
